The origin of these recorded values is ChEMBL document CHEMBL3352767.

For each record, write down the corresponding MIC.
System: Staphylococcus aureus
Assay: Antimicrobial activity against Staphylococcus aureus ATCC 29213 after 24 hrs
Format: functional
Conditions: ATCC 29213, 24 h

Here is how some molecules turned out for MIC.
CC(C)=CCCC(C)(O)CCC/C(C)=C/Cc1c(O)c(Cl)c(C)c(C(=O)O)c1O (stereo not given) ... 32 µg/mL
C/C(=C\Cc1c(O)c(Cl)c(C)c(C(=O)O)c1O)CC/C=C(\C)CCCC(C)(C)O ... 32 µg/mL
CC(C)=CCC/C(C)=C/CCC(C)(O)C1Cc2c(O)c(C=O)c(C)c(Cl)c2O1 (stereo not given) ... 128 µg/mL

Need MIC for each of these molecules.
1. CC(C)=CCC/C(C)=C/CC/C(C)=C/Cc1c(O)c(Cl)c(C)c(C(=O)O)c1O
2. Cc1onc(-c2ccccc2)c1C(=O)N[C@@H]1C(=O)N2[C@@H]1SC(C)(C)[C@@H]2C(=O)O [OXACILLIN]

4 µg/mL
0.5 µg/mL

---

Test system: Trichophyton rubrum
Assay: Antimicrobial activity against Trichophyton rubrum SNB-TR1 after 5 days
Assay type: functional
Conditions: SNB-TR1, 120 h
RECORDED_ENDPOINT: MIC
The reply must contain the numeric value and, after it, the unit.

CC(C)=CCCC(C)(O)CCC/C(C)=C/Cc1c(O)c(Cl)c(C)c(C(=O)O)c1O (stereo not given) ... 4 µg/mL
CC(C)=CCC/C(C)=C/CC/C(C)=C/Cc1c(O)c(Cl)c(C)c(C(=O)O)c1O ... 8 µg/mL
CCC(C)n1ncn(-c2ccc(N3CCN(c4ccc(OCC5COC(Cn6cncn6)(c6ccc(Cl)cc6Cl)O5)cc4)CC3)cc2)c1=O (stereo not given) [ITRACONAZOLE] ... 0.03 µg/mL

Need MIC for each of these compounds.
1. CC(C)=CCC/C(C)=C/CCC(C)(O)C1Cc2c(O)c(C=O)c(C)c(Cl)c2O1 (stereo not given)
2. C/C(=C\Cc1c(O)c(Cl)c(C)c(C(=O)O)c1O)CC/C=C(\C)CCCC(C)(C)O

1: 128 µg/mL; 2: 32 µg/mL

---

Test system: KB
Experiment: Cytotoxicity activity against human KB cells
Type: functional, cell-based
RECORDED_ENDPOINT: pIC50
One number for each entry, as −log10 of the molar value.

Here is how some compounds turned out for pIC50.
C/C(=C\Cc1c(O)c(Cl)c(C)c(C(=O)O)c1O)CC/C=C(\C)CCCC(C)(C)O ... 4.33
CC(C)=CCC/C(C)=C/CC/C(C)=C/Cc1c(O)c(Cl)c(C)c(C(=O)O)c1O ... 4.44
CC(C)=CCC/C(C)=C/CCC(C)(O)C1Cc2c(O)c(C=O)c(C)c(Cl)c2O1 (stereo not given) ... 4.78
CC(C)=CCCC(C)(O)CCC/C(C)=C/Cc1c(O)c(Cl)c(C)c(C(=O)O)c1O (stereo not given) ... 4.55

Shift focus to the following entry.
I have this compound here, CC(=O)O[C@@]12CO[C@@H]1C[C@H](O)[C@@]1(C)C(=O)[C@H](O)C3=C(C)[C@@H](OC(=O)[C@H](O)[C@@H](NC(=O)OC(C)(C)C)c4ccccc4)C[C@@](O)([C@@H](OC(=O)c4ccccc4)[C@H]21)C3(C)C , and I need its recorded pIC50.
9.70

---

Assay: Selectivity index, ratio of IC50 for human MRC5 cells to IC50 for Candida albicans ATCC 10231
RECORDED_ENDPOINT: selectivity ratio

CC(C)=CCCC(C)(O)CCC/C(C)=C/Cc1c(O)c(Cl)c(C)c(C(=O)O)c1O (stereo not drawn) ... 0.2
CC(C)=CCC/C(C)=C/CC/C(C)=C/Cc1c(O)c(Cl)c(C)c(C(=O)O)c1O ... 0.5

Shift focus to the following entry.
I have this compound here, C/C(=C\Cc1c(O)c(Cl)c(C)c(C(=O)O)c1O)CC/C=C(\C)CCCC(C)(C)O , and I need its recorded selectivity ratio.
1.6

---

Assay: Selectivity index, ratio of IC50 for human MRC5 cells to IC50 for Staphylococcus aureus ATCC 29213
For each record, write down the corresponding selectivity ratio.
Numbers only.

CC(C)=CCC/C(C)=C/CC/C(C)=C/Cc1c(O)c(Cl)c(C)c(C(=O)O)c1O ... 2
C/C(=C\Cc1c(O)c(Cl)c(C)c(C(=O)O)c1O)CC/C=C(\C)CCCC(C)(C)O ... 0.8

Shift focus to the following entry.
I have this compound here, CC(C)=CCCC(C)(O)CCC/C(C)=C/Cc1c(O)c(Cl)c(C)c(C(=O)O)c1O (stereo not drawn) , and I need its recorded selectivity ratio.
0.2

---

Measured MIC (Candida parapsilosis)
Numbers only, in µg/mL.

CC(C)=CCCC(C)(O)CCC/C(C)=C/Cc1c(O)c(Cl)c(C)c(C(=O)O)c1O (stereo not given) ... 32
C/C(=C\Cc1c(O)c(Cl)c(C)c(C(=O)O)c1O)CC/C=C(\C)CCCC(C)(C)O ... 16
CC(C)=CCC/C(C)=C/CC/C(C)=C/Cc1c(O)c(Cl)c(C)c(C(=O)O)c1O ... 16
CC(C)=CCC/C(C)=C/CCC(C)(O)C1Cc2c(O)c(C=O)c(C)c(Cl)c2O1 (stereo not given) ... 128

Item OC(Cn1cncn1)(Cn1cncn1)c1ccc(F)cc1F with Candida parapsilosis - MIC?
4
